- measurementDescription: Phase 2 plasma pharmacokinetics of ARRY-382 and metabolites
- Format: in vivo, human
- experimentalParameters: human, plasma, oral, 300 mg, AUCtau, geometric mean (geometric %CV), Cycle 2 day 1, Overall, n = 15
quantity: AUC (ng·h/mL)
# number only, unit ng·h/mL dropped from output

Given item Cc1cccc(Cn2nc(C3CC3)c3c(NC(=O)c4cnc5cc(OCCN6CCN(C)CC6)ccn45)cccc32)n1 , the value recorded as its AUC is 30600

###

- measurementDescription: Phase 2 plasma pharmacokinetics of ARRY-382 and metabolites
- Format: in vivo, human
- experimentalParameters: human, plasma, oral, 300 mg, AUCtau, geometric mean (geometric %CV), Cycle 2 day 1, PDA, n = 4
quantity: AUC

Given item Cc1cccc(Cn2nc(C3CC3)c3c(NC(=O)c4cnc5cc(OCCN6CCN(C)CC6)ccn45)cccc32)n1 , the value recorded as its AUC is 47100 ng·h/mL
